Target: T1, recombinant N-terminal extracellular domain of the human PTH1R receptor (human, UniProt Q03431 27-188, limits assumed)
T1 construct: domain: N-terminal extracellular domain; Bought reagent; also called N-ECD PTH1R; PTH1R N-terminal ECD
T1 sequence (looked up): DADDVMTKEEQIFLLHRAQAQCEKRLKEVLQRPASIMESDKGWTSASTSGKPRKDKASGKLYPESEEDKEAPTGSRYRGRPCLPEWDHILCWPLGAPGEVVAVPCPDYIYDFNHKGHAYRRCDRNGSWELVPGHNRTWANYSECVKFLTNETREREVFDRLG
Test: SPR, IgG captured, ECD injected
Below is a list of entries, each paired with its recorded Kd value.
Write the value in nM as a bare number.

The cases that follow already have their Kd on record.
binder="XPA.85.330 (antibody, V domains shown, IgG; also called Ab330) VH: QMQLVQSGAEVKKPGSSVKVSCKASGGTFSSYAISWVRQAPGQGLEWMGGIIPIFGTANYAQKFQGRVTITADESTSTAYMELSSLRSEDTAVYYCARGYVVARLWGQGTLVTVSS VL: DIVMTQTPLSLSVTPGQPASISCKSSQSLLHIDGNTYLYWYLQRPGQPPQLLIYEISNRFSGVPDRFSGSGSGTDFTLKISRVEAEDVGVYYCMQSLHFPITFGQGTRLEIK" units=nM obsvalue=0.19
binder="XPA.85.338 (antibody, V domains shown, Light-chain-shuffled variant of XPA.85.017) VH: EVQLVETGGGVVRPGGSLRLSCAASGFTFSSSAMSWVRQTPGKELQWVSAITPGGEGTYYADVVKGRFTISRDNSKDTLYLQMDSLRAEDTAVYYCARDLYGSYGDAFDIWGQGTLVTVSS VL: SYELTQPPSVSVAPGQTATITCSGDKLGDKYASWYQQKPGQSPVLVMFENRDRPSGIPDRFSGSNSGNTATLTISGTQAMDEADYYCQAWDSSTAWVFGGGTQLTVL" units=nM obsvalue=0.43

**Q:** Record request: Kd value, item XPA.85.341 (antibody, V domains shown, Light-chain-shuffled variant of XPA.85.017) VH: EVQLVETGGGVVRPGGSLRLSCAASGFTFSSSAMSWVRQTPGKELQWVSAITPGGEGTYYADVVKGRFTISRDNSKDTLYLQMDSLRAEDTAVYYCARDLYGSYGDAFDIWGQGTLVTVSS VL: SYELTQPSSVSVSPGQTASITCSGDKLGEKYASWYQQKPGQSPVLVMFEDTKRPSGIPERFSGSNSGNTATLTISGTQAEDEADYYCQAWDSSWVFGGGTQLTVL
**A:** 0.31
